In this section, each of the molecules is paired with its reported MIC.
system: Enterococcus faecalis; test: Antibacterial activity against vancomycin-resistant Enterococcus faecalis ATCC 51299 clinical isolates after 18 to 20 hrs in aerobic condition by CLSI-based broth microdilution assay; assay type: functional
readout name: MIC (µg/mL)

>>> recorded_result("C/C(=N\\NC(=N)N)c1cnn(-c2ccc(C#CC3CCCCC3)cc2)c1C")
2
>>> recorded_result("C/C(=N\\NC(=N)N)c1cnn(-c2ccc(C#CC3(O)CCCCC3)cc2)c1C")
2
>>> recorded_result("CCCCCC#Cc1ccc(-n2ncc(/C(C)=N/NC(=N)N)c2C)cc1")
2

Values compiled from ChEMBL document CHEMBL4334464.
